System: ECU
experiment description: qHTS profiling for inhibitors of Plasmodium falciparum proliferation (AID 504749); also: nearly all actives have a fitted effect of over 60% in size
condition set: P. falciparum in erythrocytes, SYBR Green DNA, 72 h; series mostly up to 28.7 µM
Inconclusive results are not listed. Activity calls are given as the source filed them. Calls follow the shape of the dose curve; as a rule, active = well fitted inhibition curve with a large enough effect; inconclusive = small, poorly fitted or top-dose-only effect; inactive = flat fitted curve, though single readings scatter.
Outcomes: active, inactive

| compound | assigned label |
| --- | --- |
| CC[C@@H](C)C(N)C(=O)O (some centres not stated) | inactive |
| COc1ccc2cc1Oc1cc3c(cc1OC)CC[N+](C)(C)C3Cc1ccc(cc1)Oc1c(OC)c(OC)cc3c1C(C2)[N+](C)(C)CC3 (configuration not stated) | inactive |
| C[C@]12C=CC(=O)N[C@@H]1CC[C@@H]1C2CC[C@]2(C)C(C(=O)Nc3cc(C(F)(F)F)ccc3C(F)(F)F)CC[C@@H]12 (some centres not stated) | inactive |
| C[n+]1c2cc(N)ccc2cc2ccc(N)cc21 | active |
| CCCCCCCCCCCCCCCC(=O)OCC(COP(=O)(O)OCC[N+](C)(C)C)OC(=O)CCCCCCCCCCCCCCC (configuration not stated) | inactive |
| CO/N=C(/C(=O)N[C@@H]1C(=O)N2C(C(=O)O)=C(CSc3nc(C)c(CC(=O)O)s3)CS[C@H]12)c1csc(N)n1 | inactive |
| CC1(C)C2CC[C@]1(C)[C@@H](O)C2 | inactive |
| O=C(O)C(O)c1ccccc1 (configuration not stated) | inactive |
| CC1CCC(C(C)C)C(O)C1 (configuration not stated) | inactive |
| CC1(C)SC2[C@@H](N=CN3CCCCCC3)C(=O)N2[C@H]1C(=O)O (some centres not stated) | inactive |
| CNC1C(O)C(OC2C(N)CC(N)C(OC3OC(CN)=CCC3N)C2O)OCC1(C)O (configuration not stated) | inactive |
| C[C@@H]1CCN(C(=O)[C@H](CCCNC(=N)N)NS(=O)(=O)c2cccc3c2NC[C@H](C)C3)[C@@H](C(=O)O)C1 | inactive |
| CCN(CC)C(=O)Nc1ccc(OC[C@H](O)CNC(C)(C)C)c(C(C)=O)c1 | inactive |
| O=C(NC(CO)C(O)c1ccc([N+](=O)[O-])cc1)C(Cl)Cl (configuration not stated) | inactive |
| CCCCCCCCCCCC(=O)OCC(O)C1OCC(O)C1O (configuration not stated) | inactive |
| CN1[C@H]2CC(OC(=O)[C@H](CO)c3ccccc3)C[C@H]1[C@H]1O[C@H]12 (some centres not stated) | inactive |
| CC[C@H](C)[C@H]1O[C@]2(CC[C@@H]1C)C[C@@H]1C[C@@H](C/C=C(\C)[C@H](O[C@@H]3C[C@H](OC)[C@H](O[C@@H]4C[C@H](OC)[C@@H](O)[C@H](C)O4)[C@H](C)O3)[C@@H](C)/C=C/C=C3\CO[C@@H]4[C@H](O)C(C)=C[C@@H](C(=O)O1)[C@]34O)O2 | active |

====

experiment description: Stat Signaling Pathway (AID 446);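 also: ME-180 cervical cancer cells given 40 pM IL-6 alongside compound; SIE-controlled beta-lactamase reporter measured as 460/530 nm FRET emission ratio; % is scaled to controls: 0 for no effect and ±100 for the full control effect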
condition set: ME-180 (cervical carcinoma) SIE beta-lactamase reporter, IL-6 stimulated, 5 h; at 17.2 µM (top of the series) unless noted
Experimental: NCGC Assay Overview: The IL-6/STAT signaling pathway was assayed in ME-180 cervical carcinoma cells by a beta-lactamase reporter gene controlled by a STAT Inducible Element (SIE). This reporter is induced by IL-6 at 40 pM AC50 and inhibited by the pan JAK inhibitor, 2-(1,1-Dimethylethyl)-9-fluoro-3,6-dihydro-7H-benz[h]-imidaz[4,5-f]isoquinolin-7-one, at approximately 10 nM AC50. Plated cells were incubated overnight and on the following day, stimulated with 40 pM IL-6 for 5 hrs. […]
Records with an inconclusive call do not appear. The source made the active and inactive calls. The call rests on the fitted dose curve; in most records, active means well fitted curve in either direction with a large enough effect (not every such curve was filed as active); inconclusive means small, poorly fitted or top-dose-only effect, or another doubt; inactive means flat fitted curve, though single readings scatter.
value kind: activity, negative = inhibition

| molecule | reported measurement |
| --- | --- |
| C/C(=N\O)c1ccc2[nH]ccc2c1 | 13.9% (inactive) |
| C=CCn1cnc2c(c1=O)c1nc3ccccc3nc1n2-c1ccc(C)cc1 | -8.6% (inactive) |
| COc1ccc(C2CC(C(F)(F)F)n3ncc(C(=O)NCC4CCCO4)c3N2)cc1OC (stereo not given) | -0.435% (inactive) |
| CCCCCCCCCCCCCCCCCC(=O)O[C@H](CC(=O)O)C[N+](C)(C)C | -28.3% [at 38 µM] (inactive) |
| C=C(C)CSc1nc(N)c2c3c(sc2n1)CCC3 | 4.14% (inactive) |
| Cc1nn(C)cc1CNC(=O)c1ccc(Br)o1 | 6.82% (inactive) |
| O=C(O)CCCCCN1C(=O)CCC1=O | 5.29% (inactive) |
| CC(=O)C1(C)OC(N)=C(C#N)C(c2ccccc2)C1(C#N)C#N (stereo not given) | -4.54% (inactive) |
| COc1ccccc1NC(=O)c1c(C)cc(=O)oc1C | 0.453% (inactive) |
| CCCCC[C@H](O)CCCC(=O)O | -28.6% [at 38 µM] (inactive) |
| CC(C)(C)c1ccc(C(=O)C=[N+]=[N-])cc1 | 4.94% (inactive) |
| Cc1cccc(-c2nnc3n2N=C(c2ccc(Br)cc2)CS3)c1 | 7.64% (inactive) |
| Cc1c(NC(=O)C(CC(=O)O)NCc2ccco2)c(=O)n(-c2ccccc2)n1C (stereo not given) | 1.34% (inactive) |
| c1cncc(Oc2cccc(Oc3cccnc3)c2)c1 | 29.4% (inactive) |
| CCCCCCSC1=C(C#N)C(c2ccccc2)CC(=O)N1 (stereo not given) | -19.8% (inactive) |
| NC[C@@H]1O[C@@H](O[C@H]2[C@@H](O)[C@H](O[C@@H]3[C@H](O)[C@H](N)C[C@H](N)[C@H]3O[C@@H]3O[C@@H](CO)[C@H](O)[C@H](O)[C@@H]3N)O[C@H]2CO)[C@H](N)[C@H](O)[C@@H]1O | -13.5% [at 38 µM] (inactive) |
| COc1ccc2c(c1)nc(N)n2Cc1ccccc1 | -3.55% (inactive) |
| Cc1nc2c(=O)n(C)c(=O)[nH]c2n1Cc1ccccc1 | -0.854% (inactive) |
| CC12CCC(C(=O)N(CCC#N)CCC#N)(CC1=O)C2(C)C (stereo not given) | 6.43% (inactive) |
| COc1ccc(OC)c(C2/C(=C(/O)c3cnn(-c4ccccc4)c3C)C(=O)C(=O)N2CCN(C)C)c1 (stereo not given) | 3.03% (inactive) |
| CCCC1Cc2c(sc3ncnc(N)c23)CO1 (stereo not given) | -9.41% (inactive) |
| CCCCOc1nc2ccccc2nc1C(C#N)C(=O)NC1CCCCC1 (stereo not given) | 25.7% (inactive) |
| CN(C)c1ccc(O)c2c1CC1CC3[C@@H](N(C)C)C(=O)C(C(N)=O)=C(O)[C@]3(O)C(=O)C1=C2O (stereo not given in full) | -13.5% (inactive) |
| Cc1cc(=O)n2[nH]cnc2n1 | 13.7% (inactive) |
| CCOC(=O)CC1=C(C(=O)OCC)C(c2ccc(OC)c(OC)c2)C(C#N)=C(N)O1 (stereo not given) | 5.77% (inactive) |
